- System: Mtb H37Rv
- test_method_notes: Resazurin reduction microplate assay, growth inhibition of Mtb H37Rv
- Format: cell-based, Mycobacterium tuberculosis
- condition_set: Mycobacterium tuberculosis, H37RV, average of two independent experiments, each in triplicate; read-out: MIC50 Mtb H37Rv
The compounds listed here are annotated with their MIC50.
Write your answer as a measured quantity: the number, then the unit.

Q. Lab note: need MIC50 with Mtb H37Rv for entry CO[C@H]1/C=C/O[C@@]2(C)Oc3c(C)c(O)c4c(O)c(c(/C=N/N5CCN(C)CC5)c(O)c4c3C2=O)NC(=O)/C(C)=C\C=C\[C@H](C)[C@H](O)[C@@H](C)[C@@H](O)[C@@H](C)[C@H](OC(C)=O)[C@@H]1C [RIF, Rifampicin, reference compound] , please look it up.
A. 0.006 µM

Q. Lab note: need MIC50 with Mtb H37Rv for entry CC(C)C[C@H](NC(=O)N[C@@H](Cc1c[nH]c2ccccc12)C(=O)O)C(=O)N[C@H](C(=O)NC[C@H]1C[C@@H](O)[C@H](n2ccc(=O)[nH]c2=O)O1)[C@H](C)N(C)C(=O)[C@@H](N)C1CCCCC1 [Compound 11] , please look it up.
A. 1.1 µM

Q. Lab note: need MIC50 with Mtb H37Rv for entry C[C@@H]([C@H](NC(=O)[C@H](Cc1ccc2ccccc2c1)NC(=O)N[C@@H](Cc1c[nH]c2ccccc12)C(=O)O)C(=O)NC[C@H]1C[C@@H](O)[C@H](n2ccc(=O)[nH]c2=O)O1)N(C)C(=O)CN [Compound 36] , please look it up.
A. 0.18 µM

Q. Lab note: need MIC50 with Mtb H37Rv for entry C[C@@H]([C@H](NC(=O)[C@H](CCCCN)NC(=O)N[C@@H](Cc1c[nH]c2ccccc12)C(=O)O)C(=O)NC[C@H]1C[C@@H](O)[C@H](n2ccc(=O)[nH]c2=O)O1)N(C)C(=O)CN [Compound 28] , please look it up.
A. 0.7 µM

Q. Lab note: need MIC50 with Mtb H37Rv for entry CC(C)[C@H](NC(=O)N[C@@H](Cc1c[nH]c2ccccc12)C(=O)O)C(=O)N[C@H](C(=O)NC[C@H]1C[C@@H](O)[C@H](n2ccc(=O)[nH]c2=O)O1)[C@H](C)N(C)C(=O)CN [Compound 22] , please look it up.
A. 0.88 µM
